B1: library; numbered along this chain (parent)
chain: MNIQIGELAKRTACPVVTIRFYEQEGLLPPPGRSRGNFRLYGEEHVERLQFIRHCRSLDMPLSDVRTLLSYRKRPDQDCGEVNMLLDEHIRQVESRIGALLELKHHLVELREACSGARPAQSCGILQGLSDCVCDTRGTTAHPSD

variants of: B1; assay: sfGFP reporter fluorescence (15 h) (µM FITC); higher = stronger transcriptional activation; conditions: library round: Round 0; ligand: 1 µM Pb
Below is a list of entries, each paired with its recorded sfGFP reporter fluorescence value.

Sample "H89F" — what was its sfGFP reporter fluorescence?
0.0566

Sample "K104R" — what was its sfGFP reporter fluorescence?
0.0958

Sample "L107E" — what was its sfGFP reporter fluorescence?
0.0746

Sample "R20T" — what was its sfGFP reporter fluorescence?
0.0612

Sample "H89I" — what was its sfGFP reporter fluorescence?
0.0537

Sample "G6E" — what was its sfGFP reporter fluorescence?
0.0605

Sample "C79K" — what was its sfGFP reporter fluorescence?
0.0614

Sample "Y22E" — what was its sfGFP reporter fluorescence?
0.0621

Sample "G116A" — what was its sfGFP reporter fluorescence?
0.0581

Sample "P61G" — what was its sfGFP reporter fluorescence?
0.294

Sample "Y41R" — what was its sfGFP reporter fluorescence?
0.0623

Sample "L85F" — what was its sfGFP reporter fluorescence?
0.0559

Sample P61N D64K L107C — what was its sfGFP reporter fluorescence?
3.57

Sample "I125G" — what was its sfGFP reporter fluorescence?
0.0559

Sample "L129G" — what was its sfGFP reporter fluorescence?
0.0542

Sample "G36T" — what was its sfGFP reporter fluorescence?
0.0894

Sample "D135L" — what was its sfGFP reporter fluorescence?
0.0898

Sample "R20K" — what was its sfGFP reporter fluorescence?
0.0625
